runConditions: in ethanol, 298.15 K
assayMetric: solubility (mole fraction)
Numbers only.

solubility (mole fraction) recorded for this compound, `O=C1NS(=O)(=O)c2ccccc21` , is 0.00924

====

runConditions: in methanol, 293.15 K
assayMetric: solubility (mole fraction)
Give bare numbers.

// solubility (mole fraction) value for `O=C1NS(=O)(=O)c2ccccc21` : 0.00927

====

runConditions: in isopropanol, 293.15 K
assayMetric: solubility (mole fraction)
Numbers only.

Reported solubility (mole fraction) ( `O=C1NS(=O)(=O)c2ccccc21` ) = 0.00792
